- MEASURED_TARGET: T1, hCSF1R ECD.506-Fc (human)
- T1 construct: also called human CSF1R ECD-Fc fusion protein; human CSF1R ECD
- T1 sequence (chain, as listed by the source limits assumed): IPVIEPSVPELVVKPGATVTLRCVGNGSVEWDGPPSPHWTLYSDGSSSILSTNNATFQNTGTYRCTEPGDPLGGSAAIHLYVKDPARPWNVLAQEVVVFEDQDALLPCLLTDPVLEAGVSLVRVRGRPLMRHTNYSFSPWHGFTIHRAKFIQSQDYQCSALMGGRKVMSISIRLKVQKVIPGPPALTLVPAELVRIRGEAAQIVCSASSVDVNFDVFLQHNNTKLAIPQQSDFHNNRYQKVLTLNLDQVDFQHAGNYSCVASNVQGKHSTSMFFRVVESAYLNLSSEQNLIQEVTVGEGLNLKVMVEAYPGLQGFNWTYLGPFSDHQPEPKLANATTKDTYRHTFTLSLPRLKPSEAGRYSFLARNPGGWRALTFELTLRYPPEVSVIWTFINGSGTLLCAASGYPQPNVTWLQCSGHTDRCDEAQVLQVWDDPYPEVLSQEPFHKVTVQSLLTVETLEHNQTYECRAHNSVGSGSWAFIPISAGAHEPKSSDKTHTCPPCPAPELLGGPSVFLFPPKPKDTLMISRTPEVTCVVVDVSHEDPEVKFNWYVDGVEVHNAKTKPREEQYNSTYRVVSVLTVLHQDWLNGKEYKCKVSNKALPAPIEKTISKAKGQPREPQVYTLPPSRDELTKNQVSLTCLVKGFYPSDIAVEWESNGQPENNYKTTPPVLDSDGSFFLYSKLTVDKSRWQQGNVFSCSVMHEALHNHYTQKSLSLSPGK
- TEST_PROTOCOL: ELISA, plate coated with human CSF1R ECD-Fc
QUANTITY_KIND: EC50 (ng/mL)

INSERT INTO results (binder, result_value) VALUES
  ('cAb 0301 (antibody, human IgG4 S228P, kappa, V domains shown) VH: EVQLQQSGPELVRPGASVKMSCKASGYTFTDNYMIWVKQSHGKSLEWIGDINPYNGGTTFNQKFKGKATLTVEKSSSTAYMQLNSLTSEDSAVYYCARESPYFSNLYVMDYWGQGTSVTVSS VL: NIVLTQSPASLAVSLGQRATISCKASQSVDYDGDNYMNWYQQKPGQPPKLLIYAASNLESGIPARFSGSGSGTDFTLNIHPVEEEDAATYYCHLSNEDLSTFGGGTKLEIKR', 11.4),
  ('h0302-L2H1 (antibody, human IgG4 S228P, kappa, V domains shown, also called Ab9; huAb 0302-L2H1) VH: QVQLVQSGAEVKKPGSSVKVSCKASGYTFSDFNIHWVRQAPGQGLEWMGYINPYTDVTVYNEKFKGRVTITSDKSTSTAYMELSSLRSEDTAVYYCASYFDGTFDYALDYWGQGTLVTVSS VL: EIVVTQSPATLSLSPGERATLSCRASESVDNYGLSFMNWFQQKPGQAPRLLIYTASNLESGIPARFSGSGSRTDFTLTISSLEPEDFAVYYCQQSKELPWTFGQGTKVEIKR', 7.74);
